src = PubChem BioAssay AID588407

target: Mu-type opioid receptor (Homo sapiens) + Delta-type opioid receptor (Homo sapiens) (UniProt P35372+P41143); experiment: OPRM1-OPRD1 heterodimer agonist potency – cell-based, luminescence, dose response (AID 588407); details: cells, MOR-DOR heterodimerization;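 note: potency of agonists raising the heterodimer signal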
Sequence (P35372 whole entry, looked up): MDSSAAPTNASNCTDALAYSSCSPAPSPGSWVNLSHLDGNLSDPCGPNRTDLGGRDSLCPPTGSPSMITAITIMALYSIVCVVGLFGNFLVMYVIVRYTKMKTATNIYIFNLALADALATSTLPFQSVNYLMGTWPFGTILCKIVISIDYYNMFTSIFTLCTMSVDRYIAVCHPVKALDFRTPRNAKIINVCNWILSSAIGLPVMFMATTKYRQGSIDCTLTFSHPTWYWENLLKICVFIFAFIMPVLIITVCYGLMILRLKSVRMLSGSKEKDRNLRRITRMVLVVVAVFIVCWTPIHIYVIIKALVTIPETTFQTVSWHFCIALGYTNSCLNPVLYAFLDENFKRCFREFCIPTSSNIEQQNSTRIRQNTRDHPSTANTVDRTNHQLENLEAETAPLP
Sequence (P41143 whole entry, looked up): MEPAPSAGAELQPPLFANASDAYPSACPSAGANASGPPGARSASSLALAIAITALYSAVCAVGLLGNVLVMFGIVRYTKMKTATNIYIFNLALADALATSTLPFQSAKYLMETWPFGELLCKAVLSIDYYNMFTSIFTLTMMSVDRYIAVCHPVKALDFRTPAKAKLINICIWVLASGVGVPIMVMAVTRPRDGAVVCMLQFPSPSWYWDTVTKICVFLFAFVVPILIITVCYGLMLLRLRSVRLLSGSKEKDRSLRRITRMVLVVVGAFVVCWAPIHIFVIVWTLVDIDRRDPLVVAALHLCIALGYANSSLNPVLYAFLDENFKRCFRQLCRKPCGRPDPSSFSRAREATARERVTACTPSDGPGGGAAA
Active and inactive are the calls of the source. The rule behind the calls is not given here.
endpoint: EC50

Please review the entries below; each comes with its answer.
CN(C)C(CNC(=S)Nc1cccc(Cl)c1)c1cccnc1 (centres undefined)	0.408 µM
Cc1cc(N2CCN(C)CC2)ccc1NC(=O)c1ccc(-c2ccc(Cl)cc2)o1	inactive
O=C(COc1ccc(/C=N/NC(=O)c2cc3ccccc3o2)cc1Br)Nc1ccccc1	9.7 µM
O=C(C=P(c1ccccc1)(c1ccccc1)c1ccccc1)c1ccccc1-c1ccccc1C(=O)C=P(c1ccccc1)(c1ccccc1)c1ccccc1	> 92.5 µM (inactive)

Name the recorded EC50 of the compound listed here: COc1ccc(C(CNc2ncnc3sc(C)c(C)c23)N(C)C)cc1 (centres undefined)
6.83 µM

Quickly give me recorded EC50 for Cc1ccc(C)c(-n2cc(CNCCCn3cccn3)c(-c3ccccc3)n2)c1
0.654 µM

Consider the compound CN(C)C(CNC(=S)Nc1cccc(Cl)c1)c1ccccc1 (centres undefined) and give its recorded EC50.
0.375 µM

Give the measured EC50 for Cc1ccc(C)c(NC(=S)NCC(c2ccccc2)N(C)C)c1 (centres undefined)
0.535 µM

====

target: Mu-type opioid receptor (Homo sapiens) + Delta-type opioid receptor (Homo sapiens) (UniProt P35372+P41143); test: OPRM1-OPRD1 heterodimer agonist potency – cell-based, luminescence, dose response (AID 588407); conditions: cells, MOR-DOR heterodimerization;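 note: potency of agonists raising the heterodimer signal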
Active and inactive are the calls of the source. No rule for the calls is given here.
I would appreciate it if you answered using one of these outcomes: class 1 = active, class 0 = inactive

Example cases with answers are listed next.
Cc1cc(C)cc(C(=O)N(CCc2ccccc2)C2=CC3CCC(C2)N3C)c1 (centres undefined)	class 1
Cc1occc1C(=O)N/N=C/c1ccc(-c2ccccc2)cc1	class 0
Cc1ccccc1OCC(O)Cn1c(=N)n(Cc2ccccc2)c2ccccc21 (centres undefined)	class 0
COc1ccc(C(CNC(=O)C(C)c2ccc3cc(OC)ccc3c2)N(C)C)cc1 (centres undefined)	class 0
Cc1nc(N2CCN(c3ccccn3)CC2)c2c(C)c(C(=O)N3CCN(c4ccc(F)cc4)CC3)sc2n1	class 1

What classification did Cc1ccccc1N1CC(O)(c2ccccc2)[N+]2=C1SCC2 (centres undefined) end up with in this test?
class 1

Which outcome did this test record for the compound COC(=O)C1=CO[C@@H](C)[C@@H]2CN(CCc3c[nH]c4ccccc34)CC[C@H]12 ?
class 1

Record request — test call for CN1C2C=C(N(CCc3c[nH]c4ccccc34)C(=O)c3ccc(Cl)cc3)CC1CC2 (centres undefined)
class 1

Which outcome was entered for the compound Cn1c(-c2c(N)n(CCc3ccccc3)c3nc4ccccc4nc23)nc2ccccc21 in this test?
class 1

Which outcome did this test record for the compound Cc1cc(=O)oc2cc(NC(=O)C3COc4ccccc4O3)ccc12 (centres undefined) ?
class 0

Please state the recorded outcome for this compound: OCC1(CC2CCCCO2)CCN(Cc2ccccc2-c2ccco2)CC1 (centres undefined)
class 1

What outcome does the record of this test show for Cc1ccc2c(Cl)c(Cc3ccccc3)c(=S)[nH]c2n1 ?
class 0

Status in this test for COc1ccc(-n2cc(CNCc3cccnc3)c(-c3cccc(F)c3)n2)cc1 ?
class 0

Tell me the recorded outcome of this test for COCC1CCN(Cc2cn(-c3ccccc3F)nc2-c2cc(C)sc2C)CC1 .
class 0

====

target: Mu-type opioid receptor (Homo sapiens) + Delta-type opioid receptor (Homo sapiens) (UniProt P35372+P41143); assay: OPRM1-OPRD1 heterodimer agonist potency – cell-based, luminescence, dose response (AID 588407); conditions: cells, MOR-DOR heterodimerization;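 note: potency of agonists raising the heterodimer signal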
Calls of active or inactive are those of the source. How the calls were made is not given here.
Parameter call: string, one of active, inactive

The examples below pair each entry with its known result.
CN(C)CCCN(C(=O)c1ccc(S(=O)(=O)N2CCc3ccccc3C2)cc1)c1nc2c(F)cc(F)cc2s1	active
CCOC(=O)C1(c2ccccc2)CCN(CCC(=O)Nc2cccc(Br)c2)CC1	active

Moving on to the next compound.
Answer briefly: the call reported for COc1ccccc1CN1CCN(C(CC(C)C)c2nnnn2Cc2cccs2)CC1 (stereo not drawn) in this assay.
inactive

====

molecular target: Mu-type opioid receptor (Homo sapiens) + Delta-type opioid receptor (Homo sapiens) (UniProt P35372+P41143); assay: OPRM1-OPRD1 heterodimer agonist potency – cell-based, luminescence, dose response (AID 588407); conditions: cells, MOR-DOR heterodimerization;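 note: potency of agonists raising the heterodimer signal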
Active and inactive are the calls of the source. How the calls were made is not given here.
endpoint: EC50

# example entries with known answers
CCc1ccc2nc(N(CCCN(C)C)C(=O)c3ccc(S(=O)(=O)N4CCc5ccccc5C4)cc3)sc2c1	inactive
CN(C)CCCN(C(=O)c1ccc(S(=O)(=O)N2CCc3ccccc3C2)cc1)c1nc2ccc(F)cc2s1	1.27 µM
CN(C)C(CNC(=O)c1ccc2ccccc2c1)c1ccco1 (stereo not drawn)	inactive
COc1ccc(-c2csc(N(CCCN(C)C)C(=O)c3cccs3)n2)cc1	inactive
OC(CNCCC(c1ccccc1)c1ccccc1)COc1ccccc1 (stereo not drawn)	inactive

Supply measured EC50 of COc1ccc(-c2nn(-c3ccccc3C)cc2CNCc2cccnc2)cc1F in your reply.
7.79 µM

Please list EC50 recorded for the compound Cc1ccc(CC(=O)NCC(c2ccco2)N(C)C)cc1C (stereo not drawn)
9.05 µM

Consider the compound CCCCCCCCCCOC(=O)Cn1c(COc2ccccc2C)[n+](C)c2ccccc21 and give its recorded EC50.
inactive

Retrieve EC50 measured for Cc1cccc(NC(=S)NC(=O)CCc2ccccc2)c1 and print it.
> 92.5 µM (inactive)

Please report the measured EC50 for CC(C)n1ncc2c(C(=O)Nc3cccc(C#N)c3)cc(C3CC3)nc21
3.59 µM

For COc1ccc2c(c1)C=C(CN1CCC(CO)(CCc3ccccc3)CC1)CO2 , write its EC50.
inactive

Specify measured EC50 for CCOC(=O)C1(Cc2ccccc2)CCN(Cc2cccn2-c2nccs2)CC1 .
inactive

Please look at this compound and report its EC50: Cc1ccc(C)c(-n2cc(CNC(C)Cn3cncn3)c(-c3ccccc3)n2)c1 (stereo not drawn)
inactive

====

target: Mu-type opioid receptor (Homo sapiens) + Delta-type opioid receptor (Homo sapiens) (UniProt P35372+P41143); assay: OPRM1-OPRD1 heterodimer agonist potency – cell-based, luminescence, dose response (AID 588407); settings: cells, MOR-DOR heterodimerization;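 note: potency of agonists raising the heterodimer signal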
The source made the active and inactive calls. No rule for the calls is given here.
Please state which outcome applies, choosing from active, inactive

Use the examples below as a reference point.
O=c1c2ccc(Cl)cc2[nH]c(=S)n1Cc1cccnc1	active
CCOC(=O)c1c(C)[nH]c(C(=O)OCC(O)=C(C#N)c2nc3ccccc3[nH]2)c1C	inactive
O=S(=O)(c1c(Cl)cc(Br)cc1Cl)N1CCN(C(=S)NC2CC2)CC1	active
CCOC(=O)c1c(C)[nH]c(C(=O)OC/C(O)=C(\C#N)c2nc3ccccc3[nH]2)c1C	inactive
CC(=O)C1CCC2C3CC=C4CC(SC(=N)N)CCC4(C)C3CCC12C (stereo not given)	active
COc1ccc(-n2c3c(cc(C(=O)NNc4ccccc4C)c2=O)C(=O)CC(C)(C)C3)cc1	active

Consider now this further compound.
Hi team, can someone confirm the assay call for CC1(NC(=O)CC(c2ccccc2)(c2ccccc2)c2ccccc2)CCN(CCCc2ccccc2)C1=O (stereo not given) ?
active

====

molecular target: Mu-type opioid receptor (Homo sapiens) + Delta-type opioid receptor (Homo sapiens) (UniProt P35372+P41143); experiment: OPRM1-OPRD1 heterodimer agonist potency – cell-based, luminescence, dose response (AID 588407); conditions: cells, MOR-DOR heterodimerization;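 note: potency of agonists raising the heterodimer signal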
Activity calls are given as the source filed them. The rule behind the calls is not given here.
I would appreciate it if you answered using one of these outcomes: active, inactive

CCOc1ccc(Nc2c3ccccc3nc3ccccc23)cc1	inactive
C/C(=N/Nc1ccnc2cc(Cl)ccc12)c1ccc(N)cc1	inactive
CN(C)C(CNC(=O)c1cnc(Cl)c(Cl)c1)c1ccccc1 (configuration not stated)	active
Cc1ccc2nc(N(CCCN(C)C)C(=O)c3ccc(S(=O)(=O)N4CCc5ccccc5C4)cc3)sc2c1	active
CCc1cccc(C)c1NC(=S)NCC(c1cccnc1)N(C)C (configuration not stated)	active
OC(CN1CCN(C(c2ccccc2)c2ccccc2)CC1)c1ccccc1 (configuration not stated)	inactive
CCc1ccc(Nc2n[n+](-c3ccccc3)c(-c3c(Cl)cccc3Cl)s2)cc1	active
O=C(c1sc2ccccc2c1Cl)N(Cc1ccco1)C1CCS(=O)(=O)C1 (configuration not stated)	inactive

Recorded test outcome, item COCCN(C(=O)C1CC(=O)N(Cc2ccccc2)C1)c1nc(-c2ccc([N+](=O)[O-])cc2)cs1 (configuration not stated)
active

Which result was noted for this molecule in the test: COc1ccc(C2Nc3ccccc3C(=O)N2c2ccc(F)cc2)cc1CSc1ccccn1 (configuration not stated)
inactive

Check the results log: what was the call for O=C(Nc1ccccc1)c1ccc(NC2CCCCC2)c(S(=O)(=O)N2CCOCC2)c1 ?
inactive

Each molecule tested received a call. Report the one for CC1[C@H]2Cc3ccc(O)cc3[C@]1(C)CCN2C (some centres not stated) .
inactive

I'd appreciate the recorded outcome for CCOC(=O)C1(CC2CCCCO2)CCN(Cc2c(C)cc(C)cc2-n2cccn2)CC1 (configuration not stated) from this test.
active

I'd appreciate the recorded outcome for O=C(NCCc1ccc(Cl)cc1)C1CCC(CNc2nc(=S)[nH]c3ccccc23)CC1 (configuration not stated) from this test.
inactive

For this molecule, state the assay outcome: COc1ccc(C(CNC(=O)c2ccc3c(c2)CCC3)N(C)C)cc1 (configuration not stated)
active

Each molecule tested received a call. Report the one for Cc1ccccc1Cn1c(O)c(N=NC(=S)Nc2ccccc2F)c2ccccc21 .
inactive

Which outcome did this test record for the molecule Cc1ccc(-n2cc(CNC(C)c3cnn(C)c3)c(-c3ccc(F)cc3)n2)cc1 (configuration not stated) ?
active
